Reported luciferase signal is given for each of the following compounds.
Target: Mitogen-activated protein kinase 7 (Homo sapiens)
Experiment: ERK5 transactivation activators in reporter cells, primary screen, cell-based, HTS (AID 1508626);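 note: luciferase driven by Gal4-ERK5 fusion binding five Gal4 sites before minimal TATA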
Conditions: HeLa Gal4-ERK5 transactivation, 18 h, at 5 µM, active compounds read high
Activity calls are given as the source filed them.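 Rule for the calls: active = luciferase signal above three times the same-plate solvent-only control wells; inactive = the rest.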

Solved cases (3 shown):
# CC1=C(/C=C/C(C)=C/C=C/C(C)=C/CO)C(C)(C)CCC1 with Mitogen-activated protein kinase 7 (Homo sapiens): luciferase signal is 48 AU (inactive)

# C[C@H](NCCc1ccc(O)cc1)[C@H](O)c1ccc(O)cc1 with Mitogen-activated protein kinase 7 (Homo sapiens): luciferase signal is 96 AU (inactive)

# CC1=C(/C=C/C(C)=C/C=C/C(C)=C/C=C/C=C(C)/C=C/C=C(C)/C=C/C(=O)[C@]2(C)C[C@@H](O)CC2(C)C)C(C)(C)C[C@H](O)C1 with Mitogen-activated protein kinase 7 (Homo sapiens): luciferase signal is 20 AU (inactive)

Further cases:
# Cc1cc(=O)oc2c(O)c(O)ccc12 with Mitogen-activated protein kinase 7 (Homo sapiens): luciferase signal is 44 AU (inactive)

# CC(=O)NC(Cc1c[nH]c2ccccc12)C(=O)O (stereo unspecified) with Mitogen-activated protein kinase 7 (Homo sapiens): luciferase signal is 64 AU (inactive)

# CN1CCN(C2=Nc3cc(Cl)ccc3Nc3ccccc32)CC1 with Mitogen-activated protein kinase 7 (Homo sapiens): luciferase signal is 24 AU (inactive)

# O=c1ccc2cc(O)c(O)cc2o1 with Mitogen-activated protein kinase 7 (Homo sapiens): luciferase signal is 72 AU (inactive)

# CNCCC=C1c2ccccc2CCc2ccccc21 with Mitogen-activated protein kinase 7 (Homo sapiens): luciferase signal is 120 AU (inactive)

# Cc1ncc(CO)c(CO)c1O with Mitogen-activated protein kinase 7 (Homo sapiens): luciferase signal is 160 AU (inactive)

# Cn1c(=O)c2[nH]c(C3CCCC3)nc2n(C)c1=O with Mitogen-activated protein kinase 7 (Homo sapiens): luciferase signal is 44 AU (inactive)

# COc1ccc2c(c1)OC[C@@H](Cc1ccc(OC)c(OC)c1)[C@H]2O with Mitogen-activated protein kinase 7 (Homo sapiens): luciferase signal is 76 AU (inactive)
